Target: cGMP-specific 3',5'-cyclic phosphodiesterase PDE V (Sus scrofa)
Assay: Inhibitory potency against pig aortic PDE V.
Measured IC50 accompanies every entry in the list below.

Use these answered entries as a reference point.
- cpdSmiles: "COc1ccc(C(=O)Nc2c(F)cccc2F)cc1OC1CCCC1"
  targetEntity: "cGMP-specific 3',5'-cyclic phosphodiesterase PDE V (Sus scrofa)"
  IC50: "> 1000 µM"
- cpdSmiles: "COc1ccc(C(=O)Nc2ccc(F)cc2)cc1OC1CCCC1"
  targetEntity: "cGMP-specific 3',5'-cyclic phosphodiesterase PDE V (Sus scrofa)"
  IC50: "> 1000 µM"
- cpdSmiles: "COc1ccc(C(=O)Nc2c(C)cccc2Cl)cc1OC1CCCC1"
  targetEntity: "cGMP-specific 3',5'-cyclic phosphodiesterase PDE V (Sus scrofa)"
  IC50: "> 1000 µM"
- cpdSmiles: "COc1ccc(C(=O)Nc2cccc(Cl)c2)cc1OC1CCCC1"
  targetEntity: "cGMP-specific 3',5'-cyclic phosphodiesterase PDE V (Sus scrofa)"
  IC50: "> 40 µM"
- cpdSmiles: "COc1ccc(C(=O)Nc2ccccc2C)cc1OC1CCCC1"
  targetEntity: "cGMP-specific 3',5'-cyclic phosphodiesterase PDE V (Sus scrofa)"
  IC50: "> 1000 µM"
- cpdSmiles: "COc1ccc(C(=O)Nc2ccccc2C(=O)c2ccccc2)cc1OC1CCCC1"
  targetEntity: "cGMP-specific 3',5'-cyclic phosphodiesterase PDE V (Sus scrofa)"
  IC50: "2.5 µM"
- cpdSmiles: "COc1ccc(C(=O)Nc2ccccc2F)cc1OC1CCCC1"
  targetEntity: "cGMP-specific 3',5'-cyclic phosphodiesterase PDE V (Sus scrofa)"
  IC50: "> 1000 µM"
- cpdSmiles: "COC(=O)c1ccccc1NC(=O)c1ccc(OC)c(OC2CCCC2)c1"
  targetEntity: "cGMP-specific 3',5'-cyclic phosphodiesterase PDE V (Sus scrofa)"
  IC50: "5.5 µM"

IC50 for COc1ccc(C(=O)Nc2ccccc2SC)cc1OC1CCCC1 ?
> 200 µM

Another: COc1ccc(C(=O)Nc2cccc(Cl)c2Cl)cc1OC1CCCC1
> 200 µM

====

Target: cGMP-specific 3',5'-cyclic phosphodiesterase PDE V (Sus scrofa)
Test: Inhibitory potency against pig aortic PDE V.
measureName: IC50

- cpdSmiles: "COc1ccc(C(=O)Nc2c(F)cccc2Cl)cc1OC1CCCC1"
  IC50: "> 1000 µM"
- cpdSmiles: "COc1ccc(C(=O)Nc2ccccc2Cl)cc1OC1CCCC1"
  IC50: "> 200 µM"

IC50 for COc1ccc(C(=O)Nc2ccccc2Br)cc1OC1CCCC1 ?
> 1000 µM

Another: COc1ccc(C(=O)Nc2ccccc2C(F)(F)F)cc1OC1CCCC1
> 1000 µM

Another: COc1ccc(C(=O)Nc2ccc(C)cc2)cc1OC1CCCC1
> 200 µM

Another: COc1ccc(C(=O)Nc2ccc(Cl)cc2)cc1OC1CCCC1
> 1000 µM

Another: COc1ccc(C(=O)Nc2ccccc2O)cc1OC1CCCC1
175 µM
